# measured-on: BRD4 (BDI_K57-E168) (Homo sapiens, UniProt O60885)
# Construct: BD1: amino acids K57-E168; made in house
# protocol: TR-FRET bromodomain binding assay, first bromodomain of BRD4
# test-settings: TR-FRET assay protocol G (compound 0.92 μM-15 pM); 100 nM probe
Label rule met when Ki is strictly below 4 nM; at or above that, label rule not met.

Answered examples (4):
Cn1cc2c3c(c[nH]c3c1=O)CN(S(=O)(=O)c1ccc(Oc3ccccc3)cc1)c1ccc(CS(C)(=O)=O)cc1-2 [Example 79]
rule not met
CC#CCOC(=O)N1Cc2c[nH]c3c(=O)n(C)cc(c23)-c2cc(CS(C)(=O)=O)ccc21 [Example 98]
rule met
Cn1cc2c3c(c[nH]c3c1=O)CN(c1ccc(F)cc1)c1ccc(CC#N)cc1-2 [Example 177]
rule met
Cn1cc2c3c(c[nH]c3c1=O)CN(CC1CCNC1)c1ccc(CS(C)(=O)=O)cc1-2 (stereo not drawn) [Example 36]
rule not met

QUERY: In plain terms, does CCOC(=O)C1c2c[nH]c3c(=O)n(C)cc(c23)-c2cc(C)cnc2N1c1ccc(F)cc1 (stereo not drawn) [Example 43] come in under 4 nM for Ki?
RESULT: rule not met

QUERY: In plain terms, does Cn1cc2c3c(c[nH]c3c1=O)CN(C1CCC(NC(=O)OC(C)(C)C)CC1)c1ccc(CS(C)(=O)=O)cc1-2 (mixture of isomers) [Example 196] come in under 4 nM for Ki?
RESULT: rule met

QUERY: In plain terms, does CN1CCCC(N2Cc3c[nH]c4c(=O)n(C)cc(c34)-c3cc(CS(C)(=O)=O)ccc32)CC1 (stereo not drawn) [Example 189] come in under 4 nM for Ki?
RESULT: rule not met

QUERY: In plain terms, does Cn1cc2c3c(c[nH]c3c1=O)C(C(=O)NCCCc1ccccc1)N(c1ccc(F)cc1F)c1ccc(CS(C)(=O)=O)cc1-2 (racemic) [Example 160] come in under 4 nM for Ki?
RESULT: rule not met

QUERY: In plain terms, does Cc1cccc(C)c1NC(=O)N1Cc2c[nH]c3c(=O)n(C)cc(c23)-c2cc(CS(C)(=O)=O)ccc21 [Example 61] come in under 4 nM for Ki?
RESULT: rule not met

QUERY: In plain terms, does Cn1cc2c3c(c[nH]c3c1=O)CN(c1ccc(Cl)cn1)c1ccc(CS(C)(=O)=O)cc1-2 [Example 245] come in under 4 nM for Ki?
RESULT: rule met

QUERY: In plain terms, does COc1cccc(OC)c1C1c2c[nH]c3c(=O)n(C)cc(c23)-c2cc(CS(C)(=O)=O)ccc2N1c1ccc(F)cc1F (racemic) [Example 221] come in under 4 nM for Ki?
RESULT: rule not met

QUERY: In plain terms, does CN(C)C(NCC1c2c[nH]c3c(=O)n(C)cc(c23)-c2cc(CS(C)(=O)=O)ccc2N1c1ccc(F)cc1F)=[N+](C)C (stereo not drawn) [Example 130] come in under 4 nM for Ki?
RESULT: rule not met

QUERY: In plain terms, does Cn1cc(-c2[nH]c3c(=O)n(C)cc4c3c2CN(c2ccccc2)c2ccc(S(C)(=O)=O)cc2-4)cn1 [Example 274] come in under 4 nM for Ki?
RESULT: rule met

QUERY: In plain terms, does COC(=O)NC1CCC(N2Cc3c[nH]c4c(=O)n(C)cc(c34)-c3cc(CS(C)(=O)=O)ccc32)CC1 (stereo not drawn) [Example 226] come in under 4 nM for Ki?
RESULT: rule met

QUERY: In plain terms, does COC(=O)CCCN1Cc2c[nH]c3c(=O)n(C)cc(c23)-c2cc(F)cc(F)c21 [Example 50] come in under 4 nM for Ki?
RESULT: rule met
